Experiment: CCTE_Shafer_MEA_dev_bursting_electrodes_number: CCTE's Neural Network Formation Assay for Number of Bursting Electrodes, Shafer Lab (AID 2284043)
Records with an inconclusive call do not appear. Active and inactive are the calls of the source. Rule for the calls: active = hit-call score of the fitted dose curve at least 0.9, where 1 is the maximum; inconclusive = response in the unintended direction; inactive = score below 0.9.
Select the matching outcome among label 1 = active, label 0 = inactive

A selection of reference data follows.
[[record]]
compound = "CN(C)C(=S)SSC(=S)N(C)C"
classlabel = "label 1"

[[record]]
compound = "CCCCOC(=O)c1ccccc1C(=O)OCCCC"
classlabel = "label 1"

[[record]]
compound = "COP(=S)(OC)Oc1nc(Cl)c(Cl)cc1Cl"
classlabel = "label 0"

[[record]]
compound = "CC(C)(C)c1ccc(CSc2cnn(C(C)(C)C)c(=O)c2Cl)cc1"
classlabel = "label 1"

[[record]]
compound = "CCCCNC(=O)n1c(NC(=O)OC)nc2ccccc21"
classlabel = "label 1"

[[record]]
compound = "Cc1ccc(-c2c(Cl)nc(C#N)n2S(=O)(=O)N(C)C)cc1"
classlabel = "label 1"


Task item: Just curious, what result did C=CCC1=C(C)[C@@H](OC(=O)[C@@H]2[C@@H](C=C(C)C)C2(C)C)CC1=O get here?
Reply: label 1

Task item: Check the results log: what was the call for CCOc1cc(Oc2ccc(C(F)(F)F)cc2Cl)ccc1[N+](=O)[O-] ?
Reply: label 1

Task item: Hello, I am checking results. What call was entered for Cc1c(F)c(F)c(COC(=O)C2C(/C=C(\Cl)C(F)(F)F)C2(C)C)c(F)c1F (centres undefined) ?
Reply: label 1
